Target protein (sequence): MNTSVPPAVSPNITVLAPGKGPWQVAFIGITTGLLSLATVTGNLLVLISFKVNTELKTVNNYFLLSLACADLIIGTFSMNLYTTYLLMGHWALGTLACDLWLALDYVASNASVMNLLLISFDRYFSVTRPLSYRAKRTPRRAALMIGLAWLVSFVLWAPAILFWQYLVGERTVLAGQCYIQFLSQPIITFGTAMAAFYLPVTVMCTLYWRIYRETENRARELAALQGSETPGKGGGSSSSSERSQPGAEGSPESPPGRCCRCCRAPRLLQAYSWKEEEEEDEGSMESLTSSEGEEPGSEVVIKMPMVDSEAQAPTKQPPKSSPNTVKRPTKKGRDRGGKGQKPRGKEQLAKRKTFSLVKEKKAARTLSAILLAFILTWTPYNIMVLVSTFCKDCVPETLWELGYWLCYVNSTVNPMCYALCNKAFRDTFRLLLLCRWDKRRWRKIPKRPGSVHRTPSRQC
Structures can show the parent of a compound that is named as a salt.
metric: IC50

Some compounds with recorded IC50:
Q: Name the reported IC50 value associated with the compound C#CCOc1nsc2c1CNCC2C (single isomer, unassigned; (+)) [Compound 20, fumarate]
Ans: 5.5 nM

Q: Name the reported IC50 value associated with the compound C#CCOc1nsc2c1CNCC2C (stereo not drawn) [Compound 19, fumarate]
Ans: 6.9 nM

Continuing:
Q: Name the reported IC50 value associated with the compound C#CCOc1nsc2c1CN(C)CC2C (single isomer, unassigned; (+)) [Compound 23, oxalate]
Ans: 14 nM

Q: Name the reported IC50 value associated with the compound C#CCOc1nsc2c1CNCC2 [Compound 8]
Ans: 53 nM

---

- assay_target: central cholinergic receptors
- protocol_text: 3H-oxotremorine M binding (displacement from rat brain homogenates)
- test_conditions: rat brain homogenate, 40 min at 30° C., pH 7.4; oxalate; read-out: 3H-Oxo-M IC50
Counter-ions that a name gives are not always drawn.
metric: IC50 (nM)
Numbers only here, please. The scale is nM.

Q: Name the reported IC50 value associated with the compound C#CCOc1nsc2c1CN(C)CC2C (single isomer, unassigned; (+)) [Compound 23, oxalate]
Ans: 18

# context switch: different compound, same IC50
Q: Name the reported IC50 value associated with the compound C#CCOc1nsc2c1CN(C)CC2C (single isomer, unassigned; (-)) [Compound 24, oxalate]
Ans: 3.8

---

- assay_target: central cholinergic receptors
- protocol_text: 3H-oxotremorine M binding (displacement from rat brain homogenates)
- test_conditions: rat brain homogenate, 40 min at 30° C., pH 7.4; read-out: 3H-Oxo-M IC50
Structures can show the parent of a compound that is named as a salt.
// values below are reported IC50
Numbers only here, please. The scale is nM.

Q: Name the reported IC50 value associated with the compound COc1nsc2c1CNCC2C (stereo not drawn) [Compound 18, fumarate]
Ans: 24

Q: Name the reported IC50 value associated with the compound COc1nsc2c1CNCC2 [Compound 3, Hydrochloride]
Ans: 18

---

- assay_target: central muscarinic M-1 receptors (Rattus norvegicus, UniProt P08482)
- protocol_text: biochemical
- Format: binding
- test_conditions: rat brain homogenate, 1.0 nM 3H-pirenzepine, 60 min at 25° C.
Where a name gives a salt, the structure may show the parent alone.
metric: IC50

Some molecules with recorded IC50:
Q: Name the reported IC50 value associated with the molecule C#CCOc1nsc2c1CN(C)CC2C (single isomer, unassigned; (-)) [Compound 24, oxalate]
Ans: 4.3 nM

Q: Name the reported IC50 value associated with the molecule C#CCOc1nsc2c1CNCC2C (single isomer, unassigned; (-)) [Compound 21, fumarate]
Ans: 8.1 nM

Q: Name the reported IC50 value associated with the molecule C#CCOc1noc2c1CNCC2C (single isomer, unassigned; (+)) [(+)-O-propargyl-7-Me-THPO, reference compound]
Ans: 61 nM

Q: Name the reported IC50 value associated with the molecule COc1nsc2c1CNCC2C (centres unmarked) [Compound 18, fumarate]
Ans: 130 nM

Q: Name the reported IC50 value associated with the molecule C=CCOc1nsc2c1CNCC2C (centres unmarked) [Compound 25, fumarate]
Ans: 11 nM

Q: Name the reported IC50 value associated with the molecule C#CCOc1nsc2c1CN(C)CC2C (centres unmarked) [Compound 22, oxalate]
Ans: 6.7 nM

Continuing:
Q: Name the reported IC50 value associated with the molecule CCOc1nsc2c1CNCC2 [Compound 5, maleate]
Ans: 370 nM

Q: Name the reported IC50 value associated with the molecule COc1nsc2c1CNCC2 [Compound 3, Hydrochloride]
Ans: 1700 nM

---

// values below are reported IC50
- assay_target: central cholinergic receptors
- protocol_text: 3H-oxotremorine M binding (displacement from rat brain homogenates)
- test_conditions: rat brain homogenate, 40 min at 30° C., pH 7.4; read-out: 3H-Oxo-M IC50
Where a name gives a salt, the structure may show the parent alone.
Give your result as the value with the unit written after it.

Q: Name the reported IC50 value associated with the molecule C#CCOc1nsc2c1CNCC2 [Compound 8]
Ans: 6.3 nM

Q: Name the reported IC50 value associated with the molecule COC(=O)C1=CCCN(C)C1 [Arecoline]
Ans: 1.9 nM

Q: Name the reported IC50 value associated with the molecule C#CCOc1nsc2c1CNCC2C (stereo not shown) [Compound 19, fumarate]
Ans: 1.8 nM

Q: Name the reported IC50 value associated with the molecule CCOc1nsc2c1CNCC2 [Compound 5, maleate]
Ans: 29 nM

Q: Name the reported IC50 value associated with the molecule C#CCOc1noc2c1CNCC2C (single isomer, unassigned; (+)) [(+)-O-propargyl-7-Me-THPO, reference compound]
Ans: 18 nM

Q: Name the reported IC50 value associated with the molecule C#CCOc1nsc2c1CN(C)CC2C (stereo not shown) [Compound 22, oxalate]
Ans: 5.3 nM

Q: Name the reported IC50 value associated with the molecule C=CCOc1nsc2c1CNCC2C (stereo not shown) [Compound 25, fumarate]
Ans: 5.3 nM
